Overview of reported MIC, M. luteus across a group of compounds:
tested on: Micrococcus luteus (clinical isolate); experiment: MIC, serial dilutions in Mueller-Hinton broth; format: cell-based; details: inoculum 10^7 CFU/ml; gram-positive

Compound | Unit Info | MIC, M. luteus
Cc1nc(CN2CCN(c3cc4c(cc3F)c(=O)c(C(=O)O)cn4C3CC3)CC2)c(CO)c(CO)c1O | µg/mL | 32
Cc1ncc(CN2CCN(c3cc4c(cc3F)c(=O)c(C(=O)O)cn4C3CC3)CC2)c2c1OC(C)OC2 (centres unmarked) | µg/mL | 8
CCCCCCCCC1OCc2c(CN3CCN(c4cc5c(cc4F)c(=O)c(C(=O)O)cn5C4CC4)CC3)cnc(C)c2O1 (centres unmarked) | µg/mL | 64
Cc1nc(CN2CCN(c3cc4c(cc3F)c(=O)c(C(=O)O)cn4C3CC3)CC2)c(CO)c2c1OC(C)(C)OC2 | µg/mL | 8
Cc1ncc(CSCCN2CCN(c3cc4c(cc3F)c(=O)c(C(=O)O)cn4C3CC3)CC2)c2c1OC(C)(C)OC2 | µg/mL | 8

----------
test system: Staphylococcus epidermidis (clinical isolate); test: MIC, serial dilutions in Mueller-Hinton broth; type: cell-based; conditions: inoculum 10^7 CFU/ml; gram-positive
Assay Endpoint: MIC, S. epidermidis (µg/mL)

Molecule | Unit Info | Endpoint Value
Cc1nc(CN2CCN(c3cc4c(cc3F)c(=O)c(C(=O)O)cn4C3CC3)CC2)c(CO)c2c1OC(C)(C)OC2 | µg/mL | 8
Cc1ncc(CN2CCN(c3cc4c(cc3F)c(=O)c(C(=O)O)cn4C3CC3)CC2)c(CO)c1O | µg/mL | 2
Cc1ncc(CSCCN2CCN(c3cc4c(cc3F)c(=O)c(C(=O)O)cn4C3CC3)CC2)c(CO)c1O | µg/mL | 8
Cc1ncc(CN2CCN(c3cc4c(cc3F)c(=O)c(C(=O)O)cn4C3CC3)CC2)c2c1OC(C)OC2 (stereo not drawn) | µg/mL | 8
Cc1nc(CN2CCN(c3cc4c(cc3F)c(=O)c(C(=O)O)cn4C3CC3)CC2)c(CO)c(CO)c1O | µg/mL | 32
CCCC1OCc2c(CN3CCN(c4cc5c(cc4F)c(=O)c(C(=O)O)cn5C4CC4)CC3)cnc(C)c2O1 (stereo not drawn) | µg/mL | 64
CCCCCCCCC1OCc2c(CN3CCN(c4cc5c(cc4F)c(=O)c(C(=O)O)cn5C4CC4)CC3)cnc(C)c2O1 (stereo not drawn) | µg/mL | 64
Cc1ncc(CN2CCN(c3cc4c(cc3F)c(=O)c(C(=O)O)cn4C3CC3)CC2)c2c1OC(C)(C)OC2 | µg/mL | 16
Cc1ncc(CSCCN2CCN(c3cc4c(cc3F)c(=O)c(C(=O)O)cn4C3CC3)CC2)c2c1OC(C)(C)OC2 | µg/mL | 32
